- Test system: ACHN renal
- EXPERIMENTAL_DETAILS: NCI tumour cell line growth inhibition, 48 h; in the data active = GI50 below about 0.43 µM; inactive = the rest
Return exactly one item of 1 for active, -1 for inactive

Please review the entries below; each comes with its answer.
Enquiry: What classification did C#Cc1c(I)n(C2OC(CO[Si](C)(C)C(C)(C)C)C3OC(C)(C)OC32)c(=O)[nH]c1=O (stereo unspecified) end up with in this test?
Return: -1

Enquiry: What classification did O=C1CSC(c2ccc(Cl)cc2Cl)N1c1ccc(F)cc1 (stereo unspecified) end up with in this test?
Return: -1

Enquiry: What classification did COc1cc2[nH]c(C(=O)c3cc(OC)c(OC)c(OC)c3)c(N)c2cc1C#CC1CC1 end up with in this test?
Return: -1

Enquiry: What classification did CCn1c(SCc2ccc(C)cc2)nnc1-c1nn(-c2ccc(Cl)cc2Cl)c(-c2ccc(Cl)cc2)c1C end up with in this test?
Return: -1

Enquiry: What classification did Br[C](Br)(Br)[Hg][c]1ccccc1 end up with in this test?
Return: -1

Enquiry: What classification did CC/C=C\C[C@H]1C/C=C2/C(=O)C=C[C@@H]2C/C=C\CCCC(=O)O1 end up with in this test?
Return: 1

Enquiry: What classification did CN(C)C(=O)[C@H](O)[C@H](Cc1ccccc1)NC(=O)c1cc2cc(Cl)ccc2[nH]1 end up with in this test?
Return: -1

Enquiry: What classification did O=c1cc(NC2CCN(CCCc3ccccc3)CC2)c2cc(Cl)ccc2o1 end up with in this test?
Return: -1

Enquiry: What classification did COc1ccc(/C=C/C(=O)C(CC2CCC2)C(=O)/C=C/c2ccc(OC)c(OC)c2)cc1OC end up with in this test?
Return: -1

Enquiry: What classification did CC(CO)(CO)NCCCCn1ccc2c1C(=O)c1c(c(O)c3ccccc3c1O)C2=O end up with in this test?
Return: -1

Please examine the following record next.
Enquiry: What classification did Nc1nc(F)nc2c1ncn2C1OC(CO)C(O)C1O (stereo unspecified) end up with in this test?
Return: -1

====

- Test system: HOP-62 NSCLC
- EXPERIMENTAL_DETAILS: NCI tumour cell line growth inhibition, 48 h
Please go through the items and note down their TGI.
Numbers only, in µM.

response.value for COc1ccc(C2COc3cc(O)c(O)cc3C2)cc1 (stereo not given) (field: TGI) = 232

response.value for CC/C=C\C[C@H]1C/C=C2/C(=O)C=C[C@@H]2C/C=C\CCCC(=O)O1 (field: TGI) = 5.39

response.value for C=C(Cl)C(C)(Cl)CCC(Br)C(C)(C)Cl (stereo not given) (field: TGI) = 53.4

Moving on to another molecule below.
response.value for CC(C)(C)OC(=O)NCCCNC1(c2cc3ccccc3s2)CCCCC1 (field: TGI) = 28.5

====

- Tested on: HCT-15 colon
- EXPERIMENTAL_DETAILS: NCI tumour cell line growth inhibition, 48 h
QUANTITY_KIND: TGI

Field TGI (system: HCT-15 colon) for entry CC(=O)OCC1OC(n2c3c(cc(C#N)c2=S)CCCCC3)C(OC(C)=O)C(OC(C)=O)C1OC(C)=O (configuration not stated) = > 100 µM

Field TGI (system: HCT-15 colon) for entry Cc1ccc2[nH]c(O)c(N=Nc3ccc(S(N)(=O)=O)cc3)c2c1 = > 25 µM

Field TGI (system: HCT-15 colon) for entry O=C1C(=Cc2ccccc2O)N=C(c2ccccc2)N1n1c(-c2ccccc2)nc2ccccc2c1=O = > 100 µM

Field TGI (system: HCT-15 colon) for entry COc1ccc(CC2NCCc3cc(OC)c(OC)cc32)cc1Br (configuration not stated) = > 100 µM

Field TGI (system: HCT-15 colon) for entry COc1cc(/C=C(\C#N)c2ccccc2)cc(OC)c1 = > 100 µM

Field TGI (system: HCT-15 colon) for entry O=C1c2ccccc2C2(c3ccc(Cl)cc3)N[C@H]3CCCC[C@@H]3N12 (some centres not stated) = > 100 µM

Look at each compound and report its TGI.
1. Nc1ccc(-c2nc3ccc(Cc4ccc5nc(-c6ccc(N)cc6)[nH]c5c4)cc3[nH]2)cc1
2. CCC1(C)C=Cc2c(cc(O)c3c(=O)c4ccccc4n(C)c23)O1 (configuration not stated)
3. CSc1sc2ccccc2[s+]1
4. CSc1cnc2ccccc2c1SC1CN(Cc2ccccc2)c2ccccc2C1=O (configuration not stated)
5. CCOC(=O)c1ccc(C)c(N=NN(C)C)c1

Return:
1. 47.9 µM
2. > 10 µM
3. > 100 µM
4. > 100 µM
5. > 100 µM

The values you see were collected from PubChem BioAssay (NCI).
